assay: protein stability index of a GFP-peptide fusion (GPS, HEK-293T) (PSI 1-6); higher = more stable; settings: treatment: MLN4924 1 uM, 8 h; c terminus: a fixed tail appended;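 note: 24-mer peptide tiles fused after GFP, lentivirally expressed, FACS-sorted into six equal bins by GFP/DsRed ratio, decoded by Illumina sequencing, PSI is the read-weighted mean bin number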
Measured protein stability index accompanies every entry in the list below.
EXPERIMENTAL READOUT: protein stability index

polymer_sequence="KRKLDTILNLERDVEDLQRDKARL [NFE2L1]" experimental_readout="protein stability index" observed=4.46
polymer_sequence="ALWKHLKSMHREELEKSGHGQAGQ [ZBED2]" experimental_readout="protein stability index" observed=3.48
polymer_sequence="GPQSRELTLKVLRSSSCGDTELLG [C2CD2L]" experimental_readout="protein stability index" observed=3.59
polymer_sequence="LEEDLKEVLRSEAGIELIIEDDIR [MYBL2]" experimental_readout="protein stability index" observed=4.68
polymer_sequence="PSWAALNSSTWGSLKQALKGLSVE [SNX8]" experimental_readout="protein stability index" observed=3.46
polymer_sequence="ALEALEPFWEVLVRSTETVERDNM [HDAC6]" experimental_readout="protein stability index" observed=3.12
polymer_sequence="SGTMGAAKVTGEVLDILTRLPESV [FLOT1]" experimental_readout="protein stability index" observed=3.71
polymer_sequence="WDPNTGFDLNNLDPELKNLFDMCG [WASL]" experimental_readout="protein stability index" observed=3.1

Hey, just so you know, these numbers are from the supplement of paper PMC10567573.
